Reference source: ChEMBL document CHEMBL4673367

STUDY SYSTEM: Bifunctional epoxide hydrolase 2 (Rattus norvegicus)
Sequence (P80299 whole entry): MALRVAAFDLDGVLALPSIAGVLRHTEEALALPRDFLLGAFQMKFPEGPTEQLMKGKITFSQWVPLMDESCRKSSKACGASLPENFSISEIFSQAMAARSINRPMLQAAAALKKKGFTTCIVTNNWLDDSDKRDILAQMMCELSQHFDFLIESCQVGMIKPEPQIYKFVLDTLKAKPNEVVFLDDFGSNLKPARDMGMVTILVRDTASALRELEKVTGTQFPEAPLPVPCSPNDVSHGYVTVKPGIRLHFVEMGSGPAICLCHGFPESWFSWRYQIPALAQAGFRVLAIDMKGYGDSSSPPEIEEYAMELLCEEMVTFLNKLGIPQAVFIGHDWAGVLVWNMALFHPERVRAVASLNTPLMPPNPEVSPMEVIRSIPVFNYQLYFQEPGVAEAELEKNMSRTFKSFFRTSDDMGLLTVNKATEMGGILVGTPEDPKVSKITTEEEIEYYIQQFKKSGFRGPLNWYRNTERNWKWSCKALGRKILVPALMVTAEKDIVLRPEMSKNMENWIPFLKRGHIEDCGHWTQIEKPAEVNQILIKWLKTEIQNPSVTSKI
PROTOCOL DETAILS: Inhibition of recombinant rat sEH expressed in baculovirus expression system using MNPC as substrate by fluorescence-based assay
pIC50: −log10 of the molar value.
Response key: YES means pIC50 >= 7; NO means pIC50 < 7.

Some entries whose results are on file:
CCCCC/C=C\C/C=C\CCCCCCCC(=O)NCCc1ccccc1 YES
CC/C=C\C/C=C\C/C=C\C/C=C\C/C=C\CCCC(=O)NCc1ccccc1 YES
CCCCCCCCCCCCCCCC(=O)NCc1ccccc1 NO

Enquiry: Form field: pIC50 at least 7? Entry: "CCCCC/C=C\C/C=C\C/C=C\C/C=C\CCCC(=O)NCc1ccccc1"
Return: YES

Enquiry: Form field: pIC50 at least 7? Entry: "CCCCC/C=C\C/C=C\C/C=C\C/C=C\CCCC(=O)NCc1cccc(OC)c1"
Return: YES

Enquiry: Form field: pIC50 at least 7? Entry: "CCCCC/C=C\C/C=C\CCCCCCCC(=O)NCc1ccccc1"
Return: YES

Enquiry: Form field: pIC50 at least 7? Entry: "CCCCCCCCCCCCCCCCCC(=O)NCc1cccc(OC)c1"
Return: NO

Enquiry: Form field: pIC50 at least 7? Entry: "CCCCCCCC/C=C\CCCCCCCC(=O)NCc1ccccc1"
Return: NO

Enquiry: Form field: pIC50 at least 7? Entry: "CCCCCCCCCCCCCCCCCC(=O)NCc1ccccc1"
Return: NO

Enquiry: Form field: pIC50 at least 7? Entry: "CC/C=C\C/C=C\C/C=C\CCCCCCCC(=O)NCc1ccccc1"
Return: YES

---

The following molecules are shown together with reported pIC50 values.
STUDY SYSTEM: Bifunctional epoxide hydrolase 2 (Homo sapiens, UniProt P34913)
Sequence (P34913 whole entry): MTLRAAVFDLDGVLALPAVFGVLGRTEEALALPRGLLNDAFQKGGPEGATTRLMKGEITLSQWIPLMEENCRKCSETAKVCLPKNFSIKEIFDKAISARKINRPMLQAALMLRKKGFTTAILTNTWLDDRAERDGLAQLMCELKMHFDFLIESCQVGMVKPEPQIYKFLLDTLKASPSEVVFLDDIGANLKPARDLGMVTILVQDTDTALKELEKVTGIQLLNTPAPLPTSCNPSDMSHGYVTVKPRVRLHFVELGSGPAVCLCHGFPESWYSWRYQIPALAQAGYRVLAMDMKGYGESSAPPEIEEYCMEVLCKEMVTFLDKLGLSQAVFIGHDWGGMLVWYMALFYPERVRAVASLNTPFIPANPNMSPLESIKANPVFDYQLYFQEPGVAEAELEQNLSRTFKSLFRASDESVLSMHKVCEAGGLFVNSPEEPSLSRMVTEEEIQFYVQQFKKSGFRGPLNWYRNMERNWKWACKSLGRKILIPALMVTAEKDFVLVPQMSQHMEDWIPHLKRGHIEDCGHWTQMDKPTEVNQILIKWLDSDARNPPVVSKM
PROTOCOL DETAILS: Inhibition of recombinant human sEH expressed in baculovirus expression system using MNPC as substrate by fluorescence-based assay
Scale explanation: pIC50 corresponds to minus log10 of a concentration expressed in moles per litre.

Observe how each entry below is paired with its result.
CC/C=C\C/C=C\C/C=C\C/C=C\C/C=C\CCCC(=O)NCc1cccc(OC)c1 7.20
CC/C=C\C/C=C\C/C=C\CCCCCCCC(=O)NCc1ccccc1 6.87
CCCCC/C=C\C/C=C\C/C=C\C/C=C\CCCC(=O)NCc1ccccc1 6.91
CC/C=C\C/C=C\C/C=C\CCCCCCCC(=O)NCc1cccc(OC)c1 7.12
CCCCCCCCCCCCCCCCCC(=O)NCc1cccc(OC)c1 4.79

Now examine the next entry.
Enquiry: Fill in: pIC50 on Bifunctional epoxide hydrolase 2 (Homo sapiens, UniProt P34913), entry "CCCCC/C=C\C/C=C\CCCCCCCC(=O)NCc1ccc(OC)c(OC)c1"
Return: 6.98
